# Test system: 967376-340-R-J2-PDC multicell spheroid viability
# Assay Name: Anticancer human tumor 967376-340-R-J2-PDC patient-derived colon adenocarcinoma cell line growth inhibition [PI3K]
# Experimental Conditions: second compound 0.0316 µM; first compound 0.1 µM; hits give low values
Endpoint: viability, T/C (%)
Numbers only, in %.

Cn1nccc1Nc1nccc(-c2ccn(C(CO)c3ccc(Cl)c(F)c3)c(=O)c2)n1 (stereo unspecified) + COc1c(OCCCN2CCOCC2)ccc2c3n(c(=NC(=O)c4cnc(N)nc4)nc12)CCN3 ... 96.8
Cn1ncc(Cl)c1-c1cc(C(=O)NC(CN)Cc2cccc(F)c2)sc1Cl (stereo unspecified) + Cc1nc(NC(=O)N2CCCC2C(N)=O)sc1-c1ccnc(C(C)(C)C(F)(F)F)c1 ... 79
CC(C)n1nc(-c2ccc3oc(N)nc3c2)c2c(N)ncnc21 + COc1c(OCCCN2CCOCC2)ccc2c3n(c(=NC(=O)c4cnc(N)nc4)nc12)CCN3 ... 39.9
CCCS(=O)(=O)Nc1ccc(F)c(C(=O)c2c[nH]c3ncc(-c4ccc(Cl)cc4)cc23)c1F + CC(Nc1ncnc2nc[nH]c12)c1cc2cccc(Cl)c2c(=O)n1-c1ccccc1 ... 125
CC1(C)CCC(CN2CCN(c3ccc(C(=O)NS(=O)(=O)c4ccc(NCC5CCOCC5)c([N+](=O)[O-])c4)c(Oc4cnc5[nH]ccc5c4)c3)CC2)=C(c2ccc(Cl)cc2)C1 + COc1c(OCCCN2CCOCC2)ccc2c3n(c(=NC(=O)c4cnc(N)nc4)nc12)CCN3 ... 73.6

For every record below, what is its viability, T/C?
1. Cn1nccc1Nc1nccc(-c2ccn(C(CO)c3ccc(Cl)c(F)c3)c(=O)c2)n1 (stereo unspecified) + Cc1nc(NC(=O)N2CCCC2C(N)=O)sc1-c1ccnc(C(C)(C)C(F)(F)F)c1
2. C=CC(=O)N1CCN(c2nc(=O)n(-c3c(C)ccnc3C(C)C)c3nc(-c4c(O)cccc4F)c(F)cc23)C(C)C1 (stereo unspecified) + CC(Nc1ncnc2nc[nH]c12)c1cc2cccc(Cl)c2c(=O)n1-c1ccccc1
3. CCCS(=O)(=O)Nc1ccc(F)c(C(=O)c2c[nH]c3ncc(-c4ccc(Cl)cc4)cc23)c1F + CC(Nc1ccc2c(c1)OCCn1cc(N3C(=O)OCC3C(F)F)nc1-2)C(N)=O
4. CC(C)n1nc(-c2ccc3oc(N)nc3c2)c2c(N)ncnc21 + Cc1nc(NC(=O)N2CCCC2C(N)=O)sc1-c1ccnc(C(C)(C)C(F)(F)F)c1

Reply:
104
104
79.6
53.4

For every record below, what is its viability, T/C?
1. Cn1nccc1Nc1nccc(-c2ccn(C(CO)c3ccc(Cl)c(F)c3)c(=O)c2)n1 (stereo unspecified) + CC(Nc1ncnc2nc[nH]c12)c1cc2cccc(Cl)c2c(=O)n1-c1ccccc1
2. CC(=O)c1c(C)c2cnc(Nc3ccc(N4CCNCC4)cn3)nc2n(C2CCCC2)c1=O + CC(Nc1ncnc2nc[nH]c12)c1cc2cccc(Cl)c2c(=O)n1-c1ccccc1

Reply:
115
82.6

----------
Task for the reader: assign each of the following compounds its reported viability, T/C.
# Tested on: 967376-340-R-J2-PDC multicell spheroid viability
# Assay Name: Anticancer human tumor 967376-340-R-J2-PDC cell line growth inhibition [PI3K];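 also: luminescence used as surrogate of cell viability; spheroids exposed to agents for 7 days before read-out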
# Experimental Conditions: second compound 0.0316 µM; first compound 0.1 µM; hits give low values
Give bare numbers, in %.

These solved cases illustrate the format of a correct answer.
CC1(C)CCC(CN2CCN(c3ccc(C(=O)NS(=O)(=O)c4ccc(NCC5CCOCC5)c([N+](=O)[O-])c4)c(Oc4cnc5[nH]ccc5c4)c3)CC2)=C(c2ccc(Cl)cc2)C1 + CC(Nc1ncnc2nc[nH]c12)c1cc2cccc(Cl)c2c(=O)n1-c1ccccc1 ... 83.4
CNC(=O)c1ccc(N2C(=S)N(c3ccc(C#N)c(C(F)(F)F)c3)C(=O)C2(C)C)cc1F + Cc1nc(NC(=O)N2CCCC2C(N)=O)sc1-c1ccnc(C(C)(C)C(F)(F)F)c1 ... 93.5
Cn1ncc(Cl)c1-c1cc(C(=O)NC(CN)Cc2cccc(F)c2)sc1Cl (stereo not given) + CC(Nc1ccc2c(c1)OCCn1cc(N3C(=O)OCC3C(F)F)nc1-2)C(N)=O ... 98

For every record below, what is its viability, T/C?
1. CCCS(=O)(=O)Nc1ccc(F)c(C(=O)c2c[nH]c3ncc(-c4ccc(Cl)cc4)cc23)c1F + COc1c(OCCCN2CCOCC2)ccc2c3n(c(=NC(=O)c4cnc(N)nc4)nc12)CCN3
2. Cn1nccc1Nc1nccc(-c2ccn(C(CO)c3ccc(Cl)c(F)c3)c(=O)c2)n1 (stereo not given) + CC(Nc1ccc2c(c1)OCCn1cc(N3C(=O)OCC3C(F)F)nc1-2)C(N)=O

Reply:
1. 63.4
2. 101

----------
# Test system: 967376-340-R-J2-PDC multicell spheroid viability
# Assay Name: Anticancer human tumor 967376-340-R-J2-PDC cell line growth inhibition [PI3K];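 also: luminescence used as surrogate of cell viability; spheroids exposed to agents for 7 days before read-out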
# Experimental Conditions: second compound 0.0316 µM; first compound 3.16 µM; hits give low values
Endpoint: viability, T/C (%)
Answers are plain numbers, in %.

These solved cases illustrate the format of a correct answer.
CC1(C)CCC(Nc2ncc(C(F)(F)F)c(-c3c[nH]c4c(P(C)(C)=O)c(C#N)ccc34)n2)CN1 (stereo not given) + Cc1nc(NC(=O)N2CCCC2C(N)=O)sc1-c1ccnc(C(C)(C)C(F)(F)F)c1 ... 61.5
CNC(=O)c1ccc(N2C(=S)N(c3ccc(C#N)c(C(F)(F)F)c3)C(=O)C2(C)C)cc1F + COc1c(OCCCN2CCOCC2)ccc2c3n(c(=NC(=O)c4cnc(N)nc4)nc12)CCN3 ... 79.9
C#Cc1c(F)ccc2cc(O)cc(-c3ncc4c(N5CC6CCC(C5)N6)nc(OCC56CCCN5CC(F)C6)nc4c3F)c12 (stereo not given) + CC(Nc1ncnc2nc[nH]c12)c1cc2cccc(Cl)c2c(=O)n1-c1ccccc1 ... 85.5
CC(Cn1ccc(-c2ccc(C#N)c(Cl)c2)n1)NC(=O)c1cc(C(C)O)[nH]n1 (stereo not given) + CC(Nc1ncnc2nc[nH]c12)c1cc2cccc(Cl)c2c(=O)n1-c1ccccc1 ... 87.5

Query: Given CNC(=O)c1ccc(N2C(=S)N(c3ccc(C#N)c(C(F)(F)F)c3)C(=O)C2(C)C)cc1F + Cc1nc(NC(=O)N2CCCC2C(N)=O)sc1-c1ccnc(C(C)(C)C(F)(F)F)c1 , state its recorded viability, T/C.
Reply: 107

----------
Task for the reader: assign each of the following compounds its reported viability, T/C.
# System: 967376-340-R-J2-PDC multicell spheroid viability
# Assay Name: Anticancer human tumor 967376-340-R-J2-PDC cell line growth inhibition [PI3K];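 also: luminescence used as surrogate of cell viability; spheroids exposed to agents for 7 days before read-out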
# Experimental Conditions: second compound 1 µM; first compound 0.0949 µM; hits give low values
Answers are plain numbers, in %.

These solved cases illustrate the format of a correct answer.
Cn1cnc2c(F)c(Nc3ccc(Br)cc3Cl)c(C(=O)NOCCO)cc21 + Cc1nc(NC(=O)N2CCCC2C(N)=O)sc1-c1ccnc(C(C)(C)C(F)(F)F)c1 ... 61.1
Cn1cnc2c(F)c(Nc3ccc(Br)cc3Cl)c(C(=O)NOCCO)cc21 + CC(Nc1ccc2c(c1)OCCn1cc(N3C(=O)OCC3C(F)F)nc1-2)C(N)=O ... 31.3
Cn1cnc2c(F)c(Nc3ccc(Br)cc3Cl)c(C(=O)NOCCO)cc21 + COc1c(OCCCN2CCOCC2)ccc2c3n(c(=NC(=O)c4cnc(N)nc4)nc12)CCN3 ... 32.3

Consider now this further compound.
Query: Given Cn1cnc2c(F)c(Nc3ccc(Br)cc3Cl)c(C(=O)NOCCO)cc21 + CC(Nc1ncnc2nc[nH]c12)c1cc2cccc(Cl)c2c(=O)n1-c1ccccc1 , state its recorded viability, T/C.
Reply: 90.1

----------
Task for the reader: assign each of the following molecules its reported viability, T/C.
# System: 967376-340-R-J2-PDC multicell spheroid viability
# Assay Name: Anticancer human tumor 967376-340-R-J2-PDC cell line growth inhibition [PI3K];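 also: luminescence used as surrogate of cell viability; spheroids exposed to agents for 7 days before read-out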
# Experimental Conditions: second compound 10 µM; first compound 3.16 µM; hits give low values
Answers are plain numbers, in %.

These solved cases illustrate the format of a correct answer.
Cn1nccc1Nc1nccc(-c2ccn(C(CO)c3ccc(Cl)c(F)c3)c(=O)c2)n1 (stereo unspecified) + Cc1nc(NC(=O)N2CCCC2C(N)=O)sc1-c1ccnc(C(C)(C)C(F)(F)F)c1 ... 53.7
C=CC(=O)N1CCN(c2nc(=O)n(-c3c(C)ccnc3C(C)C)c3nc(-c4c(O)cccc4F)c(F)cc23)C(C)C1 (stereo unspecified) + CC(Nc1ncnc2nc[nH]c12)c1cc2cccc(Cl)c2c(=O)n1-c1ccccc1 ... 94.4

For every record below, what is its viability, T/C?
1. CC1(C)CCC(CN2CCN(c3ccc(C(=O)NS(=O)(=O)c4ccc(NCC5CCOCC5)c([N+](=O)[O-])c4)c(Oc4cnc5[nH]ccc5c4)c3)CC2)=C(c2ccc(Cl)cc2)C1 + Cc1nc(NC(=O)N2CCCC2C(N)=O)sc1-c1ccnc(C(C)(C)C(F)(F)F)c1
2. C#Cc1c(F)ccc2cc(O)cc(-c3ncc4c(N5CC6CCC(C5)N6)nc(OCC56CCCN5CC(F)C6)nc4c3F)c12 (stereo unspecified) + CC(Nc1ncnc2nc[nH]c12)c1cc2cccc(Cl)c2c(=O)n1-c1ccccc1
3. CC(Cn1ccc(-c2ccc(C#N)c(Cl)c2)n1)NC(=O)c1cc(C(C)O)[nH]n1 (stereo unspecified) + Cc1nc(NC(=O)N2CCCC2C(N)=O)sc1-c1ccnc(C(C)(C)C(F)(F)F)c1
4. CNC(=O)c1ccc(N2C(=S)N(c3ccc(C#N)c(C(F)(F)F)c3)C(=O)C2(C)C)cc1F + Cc1nc(NC(=O)N2CCCC2C(N)=O)sc1-c1ccnc(C(C)(C)C(F)(F)F)c1
5. C=CC(=O)N1CCN(c2nc(=O)n(-c3c(C)ccnc3C(C)C)c3nc(-c4c(O)cccc4F)c(F)cc23)C(C)C1 (stereo unspecified) + Cc1nc(NC(=O)N2CCCC2C(N)=O)sc1-c1ccnc(C(C)(C)C(F)(F)F)c1
6. CC1(C)CCC(CN2CCN(c3ccc(C(=O)NS(=O)(=O)c4ccc(NCC5CCOCC5)c([N+](=O)[O-])c4)c(Oc4cnc5[nH]ccc5c4)c3)CC2)=C(c2ccc(Cl)cc2)C1 + CC(Nc1ncnc2nc[nH]c12)c1cc2cccc(Cl)c2c(=O)n1-c1ccccc1

Reply:
[53, 59.5, 72.1, 47.3, 48.7, 68]
